assayedSystem: CaFus1
assay: SPOT peptide array binding signal intensity (averaged, normalized) (arbitrary units (background-subtracted, floor 0; scale differs between SH3 domains)); higher = stronger binding of the SH3 domain to the peptide
Form field: SPOT peptide array binding signal intensity (one value per entry).
// keep it numeric: no unit symbol after the value

- binder: "RLPAPPPPPRRGPAP"
  valueObserved: 26.5
- binder: "SSSSTPPTLPPRRIE"
  valueObserved: 77

// query SPOT peptide array binding signal intensity value for entry RLSFFFPLDPAYIRN 2490
